# reported % cells in cell cycle phase G1; entries follow
test system: BJ cells; assay: Cell cycle assay in BJ cells; format: cell-based, human; settings: 200 nM, 48 hours, relative to untreated control
In the oligonucleotide strings, read from the 5' end, every base follows the letter of its sugar. An asterisk marks phosphorothioate; unmarked linkages are phosphodiester. Other units and linkages are bracketed, terminal groups are in braces. A string of capitals states the bases alone. e = 2'-O-(2-methoxyethyl) (MOE); [5mC] = 5-methylcytosine; d = 2'-deoxy (DNA)

SUBSTANCE: 25691 (antisense eG*e[5mC]*e[5mC]*eA*eA*dG*dG*d[5mC]*dG*dT*dG*dA*d[5mC]*dA*dT*eG*eA*eT*eA*eT) [compound 25691]
TARGET: BJ cells
% cells in cell cycle phase G1 / %: 94
--
SUBSTANCE: 328759 (antisense eG*eA*eG*eG*eG*dA*dT*dT*dG*dT*dA*dT*dG*dA*dA*e[5mC]*eA*eT*e[5mC]*eT) [compound 328759]
TARGET: BJ cells
% cells in cell cycle phase G1 / %: 91
--
SUBSTANCE: 328744 (antisense e[5mC]*eG*eG*eA*eT*d[5mC]*d[5mC]*dT*dG*dT*dT*dA*d[5mC]*d[5mC]*dT*e[5mC]*eA*e[5mC]*e[5mC]*eA) [compound 328744]
TARGET: BJ cells
% cells in cell cycle phase G1 / %: 94
--
SUBSTANCE: 328403 (antisense eA*eG*eG*e[5mC]*e[5mC]*dT*dA*dT*dT*d[5mC]*d[5mC]*dT*dG*dT*dA*eG*e[5mC]*eA*eA*eA) [compound 328403]
TARGET: BJ cells
% cells in cell cycle phase G1 / %: 102
--
SUBSTANCE: 327905 (antisense e[5mC]*eA*eG*eA*e[5mC]*eT*e[5mC]*e[5mC]*eG*eG*eT*eG*eG*eA*eA*eT*eG*eA*eA*eG*eG*eA) [compound 327905]
TARGET: BJ cells
% cells in cell cycle phase G1 / %: 100
--
SUBSTANCE: 327902 (antisense eG*eG*e[5mC]*eT*eG*eT*e[5mC]*eA*eA*eT*eT*e[5mC]*eA*eT*eA*eG*eG*eT*e[5mC]*eA*eG) [compound 327902]
TARGET: BJ cells
% cells in cell cycle phase G1 / %: 99
--
SUBSTANCE: 345395 (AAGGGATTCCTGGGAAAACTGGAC; sugars from the 5' end e5 d10 e9, all phosphorothioate, methylation of C not given here) [compound 345395]
TARGET: BJ cells
% cells in cell cycle phase G1 / %: 100

Recorded values, source patent US8178506B2.
